tested on: PC-3; assay: Cytotoxicity against human PC3 cells assessed as cell death by lactate dehydrogenase release assay; assay type: functional, cell-based
The source made the active and inactive calls. The rule behind the calls is not given here.
property.label: Activity

In the examples that follow, each entry is paired with its recorded Activity.
{"compound": "CC1(C)CC[C@]2(C(=O)O)CC[C@]3(C)C(=CC[C@@H]4[C@@]5(C)CC[C@H](OC(=O)CCC(=O)NCCOc6no[n+]([O-])c6S(=O)(=O)c6ccccc6)C(C)(C)[C@@H]5CC[C@]43C)[C@@H]2C1", "Activity": "inactive"}
{"compound": "CC(CCOc1no[n+]([O-])c1S(=O)(=O)c1ccccc1)OC(=O)[C@]12CCC(C)(C)C[C@H]1C1=CC[C@@H]3[C@@]4(C)CC[C@H](O)C(C)(C)[C@@H]4CC[C@@]3(C)[C@]1(C)CC2 (stereo partly specified)", "Activity": "inactive"}
{"compound": "CC1(C)CC[C@]2(C(=O)O)CC[C@]3(C)C(=CC[C@@H]4[C@@]5(C)CC[C@H](OC(=O)CCC(=O)OCc6cccc(Oc7no[n+]([O-])c7S(=O)(=O)c7ccccc7)c6)C(C)(C)[C@@H]5CC[C@]43C)[C@@H]2C1", "Activity": "inactive"}
{"compound": "C[C@H](CCC(=O)O)[C@H]1CC[C@H]2[C@@H]3[C@@H](O)C[C@@H]4C[C@H](O)CC[C@]4(C)[C@H]3CC[C@]12C [URSODIOL]", "Activity": "inactive"}
{"compound": "CC(CCOc1no[n+]([O-])c1S(=O)(=O)c1ccccc1)OC(=O)[C@]12CCC(C)(C)C[C@H]1C1=CC[C@@H]3[C@@]4(C)CC[C@H](OC(=O)C(F)(F)F)C(C)(C)[C@@H]4CC[C@@]3(C)[C@]1(C)CC2 (stereo partly specified)", "Activity": "inactive"}

Req: Please give the measured Activity for this compound: CC(CCOc1no[n+]([O-])c1S(=O)(=O)c1ccccc1)OC(=O)CCC(=O)O[C@H]1CC[C@]2(C)[C@H]3CC=C4[C@@H]5CC(C)(C)CC[C@]5(C(=O)O)CC[C@@]4(C)[C@]3(C)CC[C@H]2C1(C)C (stereo partly specified)
Resp: inactive

Req: Please give the measured Activity for this compound: `CC1(C)CC[C@]2(C(=O)O)CC[C@]3(C)C(=CC[C@@H]4[C@@]5(C)CC[C@H](OC(=O)CCC(=O)OCC#CCOc6no[n+]([O-])c6S(=O)(=O)c6ccccc6)C(C)(C)[C@@H]5CC[C@]43C)[C@@H]2C1`
Resp: inactive

Req: Please give the measured Activity for this compound: CC1(C)CC[C@]2(C(=O)O)CC[C@]3(C)C(=CC[C@@H]4[C@@]5(C)CC[C@H](O)C(C)(C)[C@@H]5CC[C@]43C)[C@@H]2C1 [OLEANOLIC_ACID]
Resp: inactive

Req: Please give the measured Activity for this compound: `CC1(C)CC[C@]2(C(=O)O)CC[C@]3(C)C(=CC[C@@H]4[C@@]5(C)CC[C@H](OC(=O)CCC(=O)OCCOCCOc6no[n+]([O-])c6S(=O)(=O)c6ccccc6)C(C)(C)[C@@H]5CC[C@]43C)[C@@H]2C1`
Resp: inactive

Req: Please give the measured Activity for this compound: `CC1(C)CC[C@]2(C(=O)O)CC[C@]3(C)C(=CC[C@@H]4[C@@]5(C)CC[C@H](OC(=O)CCC(=O)OCCCCOc6no[n+]([O-])c6S(=O)(=O)c6ccccc6)C(C)(C)[C@@H]5CC[C@]43C)[C@@H]2C1`
Resp: inactive

Req: Please give the measured Activity for this compound: `CC1(C)CC[C@]2(C(=O)O)CC[C@]3(C)C(=CC[C@@H]4[C@@]5(C)CC[C@H](OC(=O)CCC(=O)OCc6c(-c7ccccc7)no[n+]6[O-])C(C)(C)[C@@H]5CC[C@]43C)[C@@H]2C1`
Resp: inactive

* * *

test system: HEK293; assay: Cytotoxicity against human HEK293 cells assessed as levels of nitric oxide production at 100 uM after 30 to 300 mins by colorimetric assay; assay type: functional, cell-based
Active and inactive are the calls of the source. The calls are words filed in the database; no cut-off is given here.

{"chemical.structure": "C[C@H](CCC(=O)O)[C@H]1CC[C@H]2[C@@H]3[C@@H](O)C[C@@H]4C[C@H](O)CC[C@]4(C)[C@H]3CC[C@]12C", "Activity": "inactive"}
{"chemical.structure": "CC1(C)CC[C@]2(C(=O)O)CC[C@]3(C)C(=CC[C@@H]4[C@@]5(C)CC[C@H](OC(=O)CCC(=O)OCc6c(-c7ccccc7)no[n+]6[O-])C(C)(C)[C@@H]5CC[C@]43C)[C@@H]2C1", "Activity": "inactive"}
{"chemical.structure": "CC1(C)CC[C@]2(C(=O)O)CC[C@]3(C)C(=CC[C@@H]4[C@@]5(C)CC[C@H](O)C(C)(C)[C@@H]5CC[C@]43C)[C@@H]2C1", "Activity": "inactive"}

* * *

tested on: HepG2; assay: Cytotoxicity against human HepG2 cells assessed as cell death at 0.001 uM after 24 hrs by lactate dehydrogenase release assay; type: functional
Listing: Activity of selected molecules
Answer with a number only, understood to be in %.

In the examples that follow, each entry is paired with its recorded Activity.
{"molecule": "CC1(C)CC[C@]2(C(=O)O)CC[C@]3(C)C(=CC[C@@H]4[C@@]5(C)CC[C@H](O)C(C)(C)[C@@H]5CC[C@]43C)[C@@H]2C1 [OLEANOLIC_ACID]", "display.unit": "%", "Activity": 0}
{"molecule": "CC(CCOc1no[n+]([O-])c1S(=O)(=O)c1ccccc1)OC(=O)[C@]12CCC(C)(C)C[C@H]1C1=CC[C@@H]3[C@@]4(C)CC[C@H](O)C(C)(C)[C@@H]4CC[C@@]3(C)[C@]1(C)CC2 (stereo partly specified)", "display.unit": "%", "Activity": 0}
{"molecule": "CC1(C)CC[C@]2(C(=O)O)CC[C@]3(C)C(=CC[C@@H]4[C@@]5(C)CC[C@H](OC(=O)CCC(=O)OCCCCOc6no[n+]([O-])c6S(=O)(=O)c6ccccc6)C(C)(C)[C@@H]5CC[C@]43C)[C@@H]2C1", "display.unit": "%", "Activity": 2.6}

Req: Lookup: Activity / HepG2 / CC(CCOc1no[n+]([O-])c1S(=O)(=O)c1ccccc1)OC(=O)CCC(=O)O[C@H]1CC[C@]2(C)[C@H]3CC=C4[C@@H]5CC(C)(C)CC[C@]5(C(=O)O)CC[C@@]4(C)[C@]3(C)CC[C@H]2C1(C)C (stereo partly specified)
Resp: 1.7

Req: Lookup: Activity / HepG2 / `CC1(C)CC[C@]2(C(=O)O)CC[C@]3(C)C(=CC[C@@H]4[C@@]5(C)CC[C@H](OC(=O)CCC(=O)OCCOCCOc6no[n+]([O-])c6S(=O)(=O)c6ccccc6)C(C)(C)[C@@H]5CC[C@]43C)[C@@H]2C1`
Resp: 2.7

Req: Lookup: Activity / HepG2 / `CC1(C)CC[C@]2(C(=O)O)CC[C@]3(C)C(=CC[C@@H]4[C@@]5(C)CC[C@H](OC(=O)CCC(=O)NCCOc6no[n+]([O-])c6S(=O)(=O)c6ccccc6)C(C)(C)[C@@H]5CC[C@]43C)[C@@H]2C1`
Resp: 0

* * *

tested on: HepG2; assay: Cytotoxicity against human HepG2 cells assessed as cell death at 1 uM after 24 hrs by lactate dehydrogenase release assay; type: functional
Returns: string. Value is true if measured Activity is below 70%, and false if it is greater than or equal to it.

The examples below pair each entry with its known result.
{"compound": "CC(CCOc1no[n+]([O-])c1S(=O)(=O)c1ccccc1)OC(=O)[C@]12CCC(C)(C)C[C@H]1C1=CC[C@@H]3[C@@]4(C)CC[C@H](OC(=O)C(F)(F)F)C(C)(C)[C@@H]4CC[C@@]3(C)[C@]1(C)CC2 (stereo partly specified)", "cat": "true"}
{"compound": "CC1(C)CC[C@]2(C(=O)O)CC[C@]3(C)C(=CC[C@@H]4[C@@]5(C)CC[C@H](OC(=O)CCC(=O)OCc6c(-c7ccccc7)no[n+]6[O-])C(C)(C)[C@@H]5CC[C@]43C)[C@@H]2C1", "cat": "true"}
{"compound": "C[C@H](CCC(=O)O)[C@H]1CC[C@H]2[C@@H]3[C@@H](O)C[C@@H]4C[C@H](O)CC[C@]4(C)[C@H]3CC[C@]12C", "cat": "true"}

Req: Answer whether the compound CC(CCOc1no[n+]([O-])c1S(=O)(=O)c1ccccc1)OC(=O)CCC(=O)O[C@H]1CC[C@]2(C)[C@H]3CC=C4[C@@H]5CC(C)(C)CC[C@]5(C(=O)O)CC[C@@]4(C)[C@]3(C)CC[C@H]2C1(C)C (stereo partly specified) has Activity strictly less than 70%
Resp: false

Req: Answer whether the compound `CC1(C)CC[C@]2(C(=O)O)CC[C@]3(C)C(=CC[C@@H]4[C@@]5(C)CC[C@H](OC(=O)CCC(=O)NCCOc6no[n+]([O-])c6S(=O)(=O)c6ccccc6)C(C)(C)[C@@H]5CC[C@]43C)[C@@H]2C1` has Activity strictly less than 70%
Resp: false

Req: Answer whether the compound `CC1(C)CC[C@]2(C(=O)O)CC[C@]3(C)C(=CC[C@@H]4[C@@]5(C)CC[C@H](OC(=O)CCC(=O)OCC#CCOc6no[n+]([O-])c6S(=O)(=O)c6ccccc6)C(C)(C)[C@@H]5CC[C@]43C)[C@@H]2C1` has Activity strictly less than 70%
Resp: true

Req: Answer whether the compound CC(CCOc1no[n+]([O-])c1S(=O)(=O)c1ccccc1)OC(=O)[C@]12CCC(C)(C)C[C@H]1C1=CC[C@@H]3[C@@]4(C)CC[C@H](O)C(C)(C)[C@@H]4CC[C@@]3(C)[C@]1(C)CC2 (stereo partly specified) has Activity strictly less than 70%
Resp: false

Req: Answer whether the compound `CC1(C)CC[C@]2(C(=O)O)CC[C@]3(C)C(=CC[C@@H]4[C@@]5(C)CC[C@H](OC(=O)CCC(=O)OCCOCCOc6no[n+]([O-])c6S(=O)(=O)c6ccccc6)C(C)(C)[C@@H]5CC[C@]43C)[C@@H]2C1` has Activity strictly less than 70%
Resp: false

Req: Answer whether the compound `CC1(C)CC[C@]2(C(=O)O)CC[C@]3(C)C(=CC[C@@H]4[C@@]5(C)CC[C@H](O)C(C)(C)[C@@H]5CC[C@]43C)[C@@H]2C1` has Activity strictly less than 70%
Resp: true

Req: Answer whether the compound `CC1(C)CC[C@]2(C(=O)O)CC[C@]3(C)C(=CC[C@@H]4[C@@]5(C)CC[C@H](OC(=O)CCC(=O)OCCCCOc6no[n+]([O-])c6S(=O)(=O)c6ccccc6)C(C)(C)[C@@H]5CC[C@]43C)[C@@H]2C1` has Activity strictly less than 70%
Resp: false

Req: Answer whether the compound `CC1(C)CC[C@]2(C(=O)O)CC[C@]3(C)C(=CC[C@@H]4[C@@]5(C)CC[C@H](OC(=O)CCC(=O)OCc6cccc(Oc7no[n+]([O-])c7S(=O)(=O)c7ccccc7)c6)C(C)(C)[C@@H]5CC[C@]43C)[C@@H]2C1` has Activity strictly less than 70%
Resp: true
